tested.on: T1, C5aR transfected into CHEM-1 cells using the pHS vector (UniProt P21730 1-350)
T1 chain: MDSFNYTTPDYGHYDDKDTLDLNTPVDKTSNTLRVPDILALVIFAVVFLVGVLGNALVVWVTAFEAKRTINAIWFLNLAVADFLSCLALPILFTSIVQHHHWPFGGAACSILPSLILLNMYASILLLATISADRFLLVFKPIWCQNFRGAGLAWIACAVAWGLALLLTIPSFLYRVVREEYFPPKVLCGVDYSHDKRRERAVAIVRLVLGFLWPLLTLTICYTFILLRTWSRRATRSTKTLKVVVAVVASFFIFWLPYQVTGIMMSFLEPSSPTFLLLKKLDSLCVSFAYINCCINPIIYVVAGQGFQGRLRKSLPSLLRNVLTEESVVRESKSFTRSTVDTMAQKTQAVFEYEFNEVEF
assay.overview: binding
assay.endpoint: Ki
Form entry: enter the amount, then its unit.

Problem: Supply reported Ki belonging to this binder: C5a (ligand) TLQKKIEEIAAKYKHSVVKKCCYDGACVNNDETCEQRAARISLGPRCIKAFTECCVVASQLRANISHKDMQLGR
Solution: 0.5 nM

Attribution: patent US20060141569A1
